// data source = patent US20230293488A1

I'd appreciate it if you could supply MIC values for the items below.
- Tested on: MRSA N315
- assay overview: MIC assay and FICI synergy determination (checkerboard)
- Type: cell-based, Staphylococcus aureus
- condition parameters: Staphylococcus aureus, MRSA, read-out: MIC in MRSA N315
Numbers only, in µg/mL.

Example entries and their recorded answers appear below.
smi | target desc | measurement unit | MIC
CCN(CC)C(=S)SSC(=S)N(CC)CC | MRSA N315 | µg/mL | 11.1
CN(C)c1cc(NC(=O)CNC(C)(C)C)c(O)c2c1C[C@H]1C[C@H]3[C@H](N(C)C)C(O)=C(C(N)=O)C(=O)[C@@]3(O)C(O)=C1C2=O | MRSA N315 | µg/mL | 0.4

Now for another entry.
Reported MIC ( CN[C@H](CC(C)C)C(=O)N[C@H]1C(=O)N[C@@H](CC(N)=O)C(=O)N[C@H]2C(=O)N[C@H]3C(=O)N[C@H](C(=O)N[C@H](C(=O)O)c4cc(O)cc(O)c4-c4cc3ccc4O)[C@H](O)c3ccc(c(Cl)c3)Oc3cc2cc(c3O[C@@H]2O[C@H](CO)[C@@H](O)[C@H](O)[C@H]2O[C@H]2C[C@](C)(N)[C@H](O)[C@H](C)O2)Oc2ccc(cc2Cl)[C@H]1O ) = 0.4

* * *

- target desc: allosteric site of PBP2a (Staphylococcus aureus)
- Sequence (P07944 whole entry): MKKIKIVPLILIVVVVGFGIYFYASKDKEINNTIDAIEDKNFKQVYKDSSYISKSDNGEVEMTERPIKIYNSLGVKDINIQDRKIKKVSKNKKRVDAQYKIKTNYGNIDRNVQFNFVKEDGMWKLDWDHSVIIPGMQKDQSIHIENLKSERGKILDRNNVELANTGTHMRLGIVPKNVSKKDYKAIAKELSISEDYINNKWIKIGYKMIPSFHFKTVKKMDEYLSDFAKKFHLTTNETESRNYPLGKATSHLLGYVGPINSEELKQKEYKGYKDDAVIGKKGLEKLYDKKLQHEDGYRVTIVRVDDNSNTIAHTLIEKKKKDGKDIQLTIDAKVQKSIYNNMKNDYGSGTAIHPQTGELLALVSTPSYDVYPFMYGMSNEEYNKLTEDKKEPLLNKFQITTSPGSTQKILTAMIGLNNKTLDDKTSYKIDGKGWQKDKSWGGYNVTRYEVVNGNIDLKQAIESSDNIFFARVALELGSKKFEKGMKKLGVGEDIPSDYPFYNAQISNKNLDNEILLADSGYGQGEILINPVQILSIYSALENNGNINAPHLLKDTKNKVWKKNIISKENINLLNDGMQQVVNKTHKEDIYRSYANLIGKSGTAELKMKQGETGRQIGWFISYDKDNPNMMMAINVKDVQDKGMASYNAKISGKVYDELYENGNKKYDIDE
- assay overview: Binding to the allosteric site of PBP2a
- condition parameters: read-out: dissociation constant (Kd)
readout type: pKd
Numbers only, as −log10 of the molar value.

Reported pKd ( C[C@@H](O)[C@H]1C(=O)N2C(C(=O)O)=C(S[C@@H]3CN[C@H](C(=O)N(C)C)C3)[C@H](C)[C@H]12 ) = 3.57
